The reported numbers originate from PubChem BioAssay (NCI).

tested on: NCI-H23 lung; experiment: NCI-60 one-dose screen, 48 h; details: 10 µM unless noted
About 83,000 compounds went through this panel and 20% of them were active in at least one assay; those are over-represented in the sample as a whole. Activity calls are given as the source filed them. How the source made its calls: active means growth percent below 10; inactive means the rest.
Your answer must be one of the following: 1 (yes) = active, 0 (no) = inactive

Q: Recorded test outcome, item O=C(CSc1nnc(-c2ccc(-c3nc4ccc(Cl)cc4[nH]3)cc2)o1)Nc1ccccc1
Result: 1 (yes)

Q: Recorded test outcome, item O=C(Cn1c(-c2ccccc2)nc2ccccc21)N=Nc1c(O)[nH]c2ccc(Cl)cc12
Result: 0 (no)

----------
tested on: SR leukemia; assay: NCI-60 one-dose screen, 48 h; details: 10 µM unless noted
This is part of a sample that, as a whole, favours compounds with a hit. Of some 83,000 tested, about 20% had one in any assay. Active and inactive are the calls of the source. Rule for the calls: active = growth percent below 10; inactive = the rest.
Your answer must be one of the following: active, inactive

Cn1cc(-c2cc(N)n3nc(-c4c[nH]c5ccc(F)cc45)cc3n2)c2cccnc21 :: active
Cc1cc(Cl)ccc1NC(=O)Nc1ccc(-c2ccc3c(c2)NC(=O)/C3=C\c2ccc[nH]2)cc1 :: inactive
COc1ccc2[nH]c(O)c(N=NC(=O)c3ccc4nc(-c5ccc(Cl)cc5)[nH]c4c3)c2c1 :: inactive
O=CNc1ccc(-n2cnc3cc(-c4ccc(O)cc4)ccc32)cc1 :: inactive

Q: Recorded test outcome, item Nc1cc(-c2c[nH]c3ccc(Br)cc23)nc2cc(-c3c[nH]c4ccccc34)nn12
Result: active
